assayed_target: cMBD2 MBD R67M (Gallus gallus (chicken), UniProt Q5EFL0 2-71, R66M)
protocol_summary: SPR
value_type: pKd
Formally, pKd is defined as -log10 of the concentration c, with c in mol/L.

Q. For the binder shown here, rho-globin mCpG WT 10 bp (dsDNA, 5-methyl-C at position 5 of both strands (mC105, mC115)) DNA 1: GGATCGGCTC DNA 2: GAGCCGATCC , give the reported pKd.
A. 3.71
